Tested on: HIV-1 WT virus (HXB2) in Hela P4/R5 cells
Test: HIV-1 single cycle replication assay, WT virus
Assay type: cell-based
Details: Human immunodeficiency virus 1, HXB2; single-cycle replication, Hela P4/R5 cells, 48 h; mean ± SD; read-out: EC50 against WT virus
Entries and their pEC50 values follow.
In simple prose, pEC50 is minus the logarithm base ten of a concentration in moles per litre.

Dear colleague, please send me the reported pEC50 for O=C1Nc2ccc(Cl)cc2[C@@](C#CC2CC2)(C(F)(F)F)O1 when you can.
8.92

Dear colleague, please send me the reported pEC50 for Cc1ccnc2c1NC(=O)c1cccnc1N2C1CC1 when you can.
7.02

###

Tested on: HIV-1 K103N/Y188F mutant virus in Hela P4/R5 cells
Assay: HIV-1 single cycle replication assay, K103N/Y188F mutant virus
Format: cell-based
Conditions: Human immunodeficiency virus 1; single-cycle replication, Hela P4/R5 cells; mean ± SD; read-out: EC50 against K103N/Y188F mutant virus
Measured Property: pEC50
In simple prose, pEC50 is minus the logarithm base ten of a concentration in moles per litre.

Dear colleague, please send me the reported pEC50 for Cc1ccnc2c1NC(=O)c1cccnc1N2C1CC1 when you can.
4.84

###

Test system: HIV-1 Y188F mutant virus in Hela P4/R5 cells
Assay: HIV-1 single cycle replication assay, Y188F mutant virus
Assay type: cell-based
Settings: Human immunodeficiency virus 1; single-cycle replication, Hela P4/R5 cells; mean ± SD; read-out: EC50 against Y188F mutant virus
Measured Property: pEC50
In simple prose, pEC50 is minus the logarithm base ten of a concentration in moles per litre.

Dear colleague, please send me the reported pEC50 for Cc1ccnc2c1NC(=O)c1cccnc1N2C1CC1 when you can.
7.21

###

Test system: HIV-1 Y181F mutant virus in Hela P4/R5 cells
Experiment: HIV-1 single cycle replication assay, Y181F mutant virus
Format: cell-based
Conditions: Human immunodeficiency virus 1, read-out: EC50 against Y181F mutant virus
Measured Property: EC50 (nM)
Field format: number, assumed nM, no unit text.

CC(C)Nc1cccnc1N1CCN(C(=O)c2cc3cc(NS(C)(=O)=O)ccc3[nH]2)CC1 : 8.6

Dear colleague, please send me the reported EC50 for O=C1Nc2ccc(Cl)cc2[C@@](C#CC2CC2)(C(F)(F)F)O1 when you can.
0.5

###

System: HIV-1 K103A mutant virus in Hela P4/R5 cells
Experiment: HIV-1 single cycle replication assay, K103A mutant virus
Assay type: cell-based
Settings: Human immunodeficiency virus 1, read-out: EC50 against K103A mutant virus
Entries and their EC50 values follow.
Form field: result (number plus unit)

CC(C)Nc1cccnc1N1CCN(C(=O)c2cc3cc(NS(C)(=O)=O)ccc3[nH]2)CC1 : 38 nM

Dear colleague, please send me the reported EC50 for O=C1Nc2ccc(Cl)cc2[C@@](C#CC2CC2)(C(F)(F)F)O1 when you can.
2 nM

###

Tested on: HIV-1 Y181F/Y188F mutant virus in Hela P4/R5 cells
Assay: HIV-1 single cycle replication assay, Y181F/Y188F mutant virus
Assay type: cell-based
Settings: Human immunodeficiency virus 1; single-cycle replication, Hela P4/R5 cells; mean ± SD; read-out: EC50 against Y181F/Y188F mutant virus
Measured Property: EC50 (nM)
Field format: number, assumed nM, no unit text.

Dear colleague, please send me the reported EC50 for Cc1ccnc2c1NC(=O)c1cccnc1N2C1CC1 when you can.
34
